Target: Kallikrein-1 (Homo sapiens)
Assay: Competitive inhibition of recombinant human KLK1 expressed in baculovirus/insect cell expression system using Abz-KLRSSKQ-EDDnp peptide as substrate by Dixon plot analysis
READOUT TYPE: Ki (µM)

SMILES STRUCTURE: CC(C)(C(=O)NC1CCCCC1)N(C(=O)Cc1ccc(O)cc1)[C@H]1CO[C@H]2[C@@H]1OC[C@H]2OCc1ccccc1
READOUT UNITS: µM
QUANTITATIVE READOUT: 3.1

---

Recorded pIC50, one value per entry.
Target: Kallikrein-1 (Homo sapiens, UniProt P06870)
Sequence (P06870 whole entry): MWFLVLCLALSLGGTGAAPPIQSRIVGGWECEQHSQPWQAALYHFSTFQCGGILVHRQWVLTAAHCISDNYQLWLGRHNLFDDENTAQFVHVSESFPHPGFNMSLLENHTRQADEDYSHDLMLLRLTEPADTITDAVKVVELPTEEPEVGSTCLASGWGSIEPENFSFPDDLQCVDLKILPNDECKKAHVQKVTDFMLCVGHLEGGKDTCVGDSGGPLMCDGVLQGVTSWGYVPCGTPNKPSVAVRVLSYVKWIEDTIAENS
Assay: Inhibition of recombinant human KLK1 expressed in baculovirus/insect cell expression system using Abz-KLRSSKQ-EDDnp peptide as substrate preincubated for 5 mins followed by substrate addition by FRET assay
pIC50: −log10 of the molar value.
READOUT TYPE: pIC50

SMILES STRUCTURE: CC(C)(C(=O)NC1CCCCC1)N(C(=O)Cc1ccc(O)cc1)[C@H]1CO[C@H]2[C@@H]1OC[C@H]2OCc1ccccc1
READOUT TYPE: pIC50
QUANTITATIVE READOUT: 5.40
--
SMILES STRUCTURE: CC(C)(C(=O)NC1CCCCC1)N(C(=O)c1ccccc1)[C@H]1CO[C@H]2[C@@H]1OC[C@H]2OCc1ccccc1
READOUT TYPE: pIC50
QUANTITATIVE READOUT: 3.40
--
SMILES STRUCTURE: COc1ccc(CC(=O)N([C@H]2CO[C@H]3[C@@H]2OC[C@H]3OCc2ccccc2)C(C)(C)C(=O)NC2CCCCC2)cc1
READOUT TYPE: pIC50
QUANTITATIVE READOUT: 3.90
--
SMILES STRUCTURE: CC(C)(C(=O)NC1CCCCC1)N(C(=O)Cc1ccc(O)cc1)[C@H]1CO[C@H]2[C@@H]1OC[C@@H]2N(C(=O)Cc1ccc(O)cc1)C(C)(C)C(=O)NC1CCCCC1
READOUT TYPE: pIC50
QUANTITATIVE READOUT: 4.90
--
SMILES STRUCTURE: CC(C)(C(=O)NC1CCCCC1)N(C(=O)Cc1ccc(F)cc1)[C@H]1CO[C@H]2[C@@H]1OC[C@H]2OCc1ccccc1
READOUT TYPE: pIC50
QUANTITATIVE READOUT: 3.66

---

Molecular target: Kallikrein-7 (Homo sapiens, UniProt P49862)
Sequence (P49862 whole entry): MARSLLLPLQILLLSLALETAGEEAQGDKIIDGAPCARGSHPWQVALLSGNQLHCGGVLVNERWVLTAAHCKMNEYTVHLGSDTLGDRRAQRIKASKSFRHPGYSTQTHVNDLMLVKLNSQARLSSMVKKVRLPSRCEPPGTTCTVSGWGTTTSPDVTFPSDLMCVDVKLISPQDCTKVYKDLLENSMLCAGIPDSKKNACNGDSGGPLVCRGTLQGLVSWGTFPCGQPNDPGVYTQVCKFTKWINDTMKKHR
Test: Inhibition of recombinant human KLK7 expressed in baculovirus/insect cell expression system using Abz-KLYSSKQ-EDDnp peptide as substrate preincubated for 5 mins followed by substrate addition by FRET assay
Assign labels as follows, please: label 1 for IC50 below 200 µM; label 0 for IC50 equal to or exceeding 200 µM.

SMILES STRUCTURE: CC(C)(C(=O)NC1CCCCC1)N(C(=O)Cc1ccc(F)cc1)[C@H]1CO[C@H]2[C@@H]1OC[C@H]2OCc1ccccc1
TARGET DESC: Kallikrein-7 (Homo sapiens, UniProt P49862)
LABEL CLASS: label 1
--
SMILES STRUCTURE: CC(C)(C(=O)NC1CCCCC1)N(C(=O)Cc1ccc(O)cc1)[C@H]1CO[C@H]2[C@@H]1OC[C@@H]2N(C(=O)Cc1ccc(O)cc1)C(C)(C)C(=O)NC1CCCCC1
TARGET DESC: Kallikrein-7 (Homo sapiens, UniProt P49862)
LABEL CLASS: label 1
--
SMILES STRUCTURE: CC(C)(C(=O)NC1CCCCC1)N(C(=O)c1ccccc1)[C@H]1CO[C@H]2[C@@H]1OC[C@H]2OCc1ccccc1
TARGET DESC: Kallikrein-7 (Homo sapiens, UniProt P49862)
LABEL CLASS: label 0
--
SMILES STRUCTURE: COc1ccc(CC(=O)N([C@H]2CO[C@H]3[C@@H]2OC[C@H]3OCc2ccccc2)C(C)(C)C(=O)NC2CCCCC2)cc1
TARGET DESC: Kallikrein-7 (Homo sapiens, UniProt P49862)
LABEL CLASS: label 0
--
SMILES STRUCTURE: CC(C)(C(=O)NC1CCCCC1)N(C(=O)Cc1ccc(O)cc1)[C@H]1CO[C@H]2[C@@H]1OC[C@H]2OCc1ccccc1
TARGET DESC: Kallikrein-7 (Homo sapiens, UniProt P49862)
LABEL CLASS: label 0
